test system: 931267-113-T-J1-PDC KRAS spheroid with HUVEC/MSC, viability; experiment: Anticancer human tumor 931267-113-T-J1-PDC patient-derived colon adenocarcinoma cell line growth inhibition [KRAS2]; details: second compound 0.316 µM; first compound 1 µM; stronger effect = lower value;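 note: compound exposure lasted 7 days before the readout; 100% = DMSO vehicle control viability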
The threshold is 70%. Values of viability, T/C beneath it are tagged class 1; values meeting or exceeding it are tagged class 0.

Reference set (8 entries):
CCNC(=O)CC1N=C(c2ccc(Cl)cc2)c2cc(OC)ccc2-n2c(C)nnc21 (stereo not given) + CC1OCC2(CCN(c3cnc(Sc4ccnc(N)c4Cl)c(N)n3)CC2)C1N: class 1
Cn1nccc1Nc1nccc(-c2cc3c(s2)C(C)(C)N(CCN2CCOCC2)C3=O)n1 + CC1OCC2(CCN(c3cnc(Sc4ccnc(N)c4Cl)c(N)n3)CC2)C1N: class 1
CCN1CCN(Cc2ccc(Nc3ncc(F)c(-c4cc(F)c5nc(C)n(C(C)C)c5c4)n3)nc2)CC1 + CC1OCC2(CCN(c3cnc(Sc4ccnc(N)c4Cl)c(N)n3)CC2)C1N: class 1
COc1cc(Nc2ncc3c(n2)-c2ccc(Cl)cc2C(c2c(F)cccc2OC)=NC3)ccc1C(=O)O + C=CC(=O)N1CCN(c2nc(=O)n(-c3c(C)ccnc3C(C)C)c3nc(-c4c(O)cccc4F)c(F)cc23)C(C)C1: class 0
CCNC(=O)CC1N=C(c2ccc(Cl)cc2)c2cc(OC)ccc2-n2c(C)nnc21 (stereo not given) + COc1cc2nc(C)nc(NC(C)c3cc(N)cc(C(F)(F)F)c3)c2cc1OC1CCOC1: class 1
CC1COCCN1c1cc(-c2ccnn2C)c2ccnc(-c3ccn[nH]3)c2n1 (stereo not given) + C=CC(=O)N1CCN(c2nc(=O)n(-c3c(C)ccnc3C(C)C)c3nc(-c4c(O)cccc4F)c(F)cc23)C(C)C1: class 1
Cn1nccc1Nc1nccc(-c2cc3c(s2)C(C)(C)N(CCN2CCOCC2)C3=O)n1 + COc1cc2nc(C)nc(NC(C)c3cc(N)cc(C(F)(F)F)c3)c2cc1OC1CCOC1: class 1
COC(=O)c1ccc2c(C(=Nc3ccc(N(C)C(=O)CN4CCN(C)CC4)cc3)c3ccccc3)c(O)[nH]c2c1 + COc1cc2nc(C)nc(NC(C)c3cc(N)cc(C(F)(F)F)c3)c2cc1OC1CCOC1: class 1

Quick check: viability, T/C of CC(=O)OC12COC1CC(O)C1(C)C(=O)C(O)C3=C(C)C(OC(=O)C(O)C(NC(=O)OC(C)(C)C)c4ccccc4)CC(O)(C(OC(=O)c4ccccc4)C21)C3(C)C (stereo not given) + COc1cc2nc(C)nc(NC(C)c3cc(N)cc(C(F)(F)F)c3)c2cc1OC1CCOC1 under 70%? class 0

What do you get for Cn1nccc1Nc1nccc(-c2cc3c(s2)C(C)(C)N(CCN2CCOCC2)C3=O)n1 + C=CC(=O)N1CCN(c2nc(=O)n(-c3c(C)ccnc3C(C)C)c3nc(-c4c(O)cccc4F)c(F)cc23)C(C)C1 ? class 1

What do you get for COc1cc(Nc2ncc3c(n2)-c2ccc(Cl)cc2C(c2c(F)cccc2OC)=NC3)ccc1C(=O)O + CNCc1ccccc1-c1csc(C(C)Nc2nc(C)nc3cc(OC)c(OC)cc23)c1 ? class 0

What do you get for COC(=O)c1ccc2c(C(=Nc3ccc(N(C)C(=O)CN4CCN(C)CC4)cc3)c3ccccc3)c(O)[nH]c2c1 + CNCc1ccccc1-c1csc(C(C)Nc2nc(C)nc3cc(OC)c(OC)cc23)c1 ? class 1

What do you get for COc1cc(Nc2ncc3c(n2)-c2ccc(Cl)cc2C(c2c(F)cccc2OC)=NC3)ccc1C(=O)O + COc1cc2nc(C)nc(NC(C)c3cc(N)cc(C(F)(F)F)c3)c2cc1OC1CCOC1 ? class 0
